So I've got a bunch of compounds here, and I need their pIC50 values.
target: TYK2 (Homo sapiens (Human))
Sequence (P29597 whole entry): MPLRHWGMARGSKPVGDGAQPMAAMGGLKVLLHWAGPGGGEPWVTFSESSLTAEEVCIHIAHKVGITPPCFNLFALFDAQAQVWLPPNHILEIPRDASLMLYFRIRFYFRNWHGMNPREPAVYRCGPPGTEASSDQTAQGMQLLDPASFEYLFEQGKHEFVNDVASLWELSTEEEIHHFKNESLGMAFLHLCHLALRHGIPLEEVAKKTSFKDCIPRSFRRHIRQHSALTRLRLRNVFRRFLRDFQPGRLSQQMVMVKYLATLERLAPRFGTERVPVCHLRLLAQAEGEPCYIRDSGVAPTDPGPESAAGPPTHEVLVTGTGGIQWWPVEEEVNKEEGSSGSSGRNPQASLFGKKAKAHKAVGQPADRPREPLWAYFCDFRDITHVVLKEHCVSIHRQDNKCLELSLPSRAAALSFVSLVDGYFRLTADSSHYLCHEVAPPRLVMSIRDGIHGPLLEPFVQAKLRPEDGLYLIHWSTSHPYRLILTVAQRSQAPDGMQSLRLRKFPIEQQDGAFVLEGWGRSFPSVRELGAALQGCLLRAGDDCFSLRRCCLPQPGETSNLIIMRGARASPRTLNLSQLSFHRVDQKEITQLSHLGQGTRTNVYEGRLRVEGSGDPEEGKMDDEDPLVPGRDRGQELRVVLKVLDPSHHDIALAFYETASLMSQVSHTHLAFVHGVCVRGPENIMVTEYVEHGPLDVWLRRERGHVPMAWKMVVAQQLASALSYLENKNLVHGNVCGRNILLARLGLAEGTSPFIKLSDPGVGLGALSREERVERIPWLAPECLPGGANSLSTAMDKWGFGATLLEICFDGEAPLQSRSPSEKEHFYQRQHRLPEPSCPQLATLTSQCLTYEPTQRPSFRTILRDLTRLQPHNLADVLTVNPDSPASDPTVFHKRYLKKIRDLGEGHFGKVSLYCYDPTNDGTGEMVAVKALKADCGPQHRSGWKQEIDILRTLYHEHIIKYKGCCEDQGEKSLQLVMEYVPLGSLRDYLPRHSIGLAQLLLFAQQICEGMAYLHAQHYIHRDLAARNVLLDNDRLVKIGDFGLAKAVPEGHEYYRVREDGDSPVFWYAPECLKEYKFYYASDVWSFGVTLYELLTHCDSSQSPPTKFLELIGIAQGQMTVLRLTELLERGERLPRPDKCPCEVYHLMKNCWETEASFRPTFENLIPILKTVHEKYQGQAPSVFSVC
pIC50: −log10 of the molar value.

Recorded results for 5 compounds are shown here.
* O=C(CN1CCCCC1)Nc1cccc(-c2cnc3ccccc3n2)c1 [Example 9] | < 4.70
* CC(Nc1cccc(-c2cnc3ccccc3n2)c1)=C1CCOC1=O (racemic) [Example 31] | < 5.00
* C=CC(=O)Nc1cccc(-c2cnc3ccccc3n2)c1 [Example 22, N-(3-(quinoxalin-2-yl)phenyl)acrylamide] | < 5.00
* O=C(CN1CCN(c2ccncc2)CC1)Nc1cccc(-c2cnc3ccccc3n2)c1 [Example 33] | < 5.00
* CN(C)CC(=O)Nc1cccc(-c2cnc3ccccc3n2)c1 [Example 2] | < 4.30

// each listed compound needs a value for pIC50
1. C=CCC(=O)Nc1cccc(-c2cnc3ccccc3n2)c1 [Example 23]
2. O=C(CN1CCC(O)CC1)Nc1cccc(-c2cnc3ccccc3n2)c1 [Example 34]

Found:
1. < 5.00
2. < 5.00
